Values from patent US8809343B2

Test: Cell toxicity in uninfected MT-4 cells (MTT method)
Assay type: cell-based
Conditions: human, Table 3
TEST READOUT: CC50 at 7 days

Prompt: Quote CC50 at 7 days reported for O=C1Nc2ccc(Cl)cc2[C@@](C#CC2CC2)(C(F)(F)F)O1 [EFV, efavirenz, reference compound] please.
Completion: > 6.34 µM

Prompt: Quote CC50 at 7 days reported for Cc1ccnc2c1NC(=O)c1cccnc1N2C1CC1 [NVP, nevirapine, reference compound] please.
Completion: > 15 µM

----------
System: HIV-1 IIIB strain
Test: Anti-HIV activity: protection of HIV-infected MT-4 cells from virus-induced cell lesions
Assay type: cell-based
Conditions: HIV-1 IIIB, MT-4 cells, Table 1
TEST READOUT: SI (Selectivity index, the ratio of CC50/IC50)
API note: the answer field is a bare number with no unit suffix.

Past entries and their recorded results:
N#Cc1ccc(Nc2nc(Cl)cc(Oc3cccc4cccnc34)n2)cc1 [Compound 2] ... 1031
N#Cc1ccc(Nc2nccc(Oc3cccc4cccnc34)n2)cc1 [Compound 1] ... 13393
COc1cc(Oc2cccc3cccnc23)nc(Nc2ccc(C#N)cc2)n1 [Compound 4] ... 3299
CC(C)Nc1cccnc1N1CCN(C(=O)c2cc3cc(NS(C)(=O)=O)ccc3[nH]2)CC1 [DLV, Delavirdine, reference compound] ... 12

Prompt: Give reported SI (Selectivity index, the ratio of CC50/IC50) for CNc1cc(Oc2cccc3cccnc23)nc(Nc2ccc(C#N)cc2)n1 [Compound 3] (HIV-1 IIIB strain)
Completion: 6089

----------
System: HIV-1 IIIB strain
Assay: Anti-HIV activity: protection of HIV-infected MT-4 cells from virus-induced cell lesions
Type: cell-based
Conditions: Human immunodeficiency virus 1, IIIB, MT4; MT-4 cells, Table 1; read-out: EC50 HIV-1(IIIB)
TEST READOUT: pEC50
Note: pEC50 values are expressed as the negative base-10 logarithm of concentration in M.

Past entries and their recorded results:
O=C1Nc2ccc(Cl)cc2[C@@](C#CC2CC2)(C(F)(F)F)O1 [EFV, efavirenz, reference compound] ... 8.52
Cc1ccnc2c1NC(=O)c1cccnc1N2C1CC1 [NVP, nevirapine, reference compound] ... 7.12

Could you now look at the following compound, please?
Prompt: Quote pEC50 reported for CC(C)Nc1cccnc1N1CCN(C(=O)c2cc3cc(NS(C)(=O)=O)ccc3[nH]2)CC1 [DLV, Delavirdine, reference compound] please.
Completion: 7.14

----------
Assay: Cell toxicity in uninfected MT-4 cells (MTT method)
Type: cell-based
Conditions: human, Table 1
Protocol: Anti-virus activity of cells in vitro was determined by Rega Institute for Medical of […] Katholleke University, consisting mainly: inhibitory activity towards HIV-infected MT-4 cells and cell toxicity. […]
Listed here are molecules together with their documented CC50 at 7 days.
I only need the number, in µM, no unit after it.

O=C1Nc2ccc(Cl)cc2[C@@](C#CC2CC2)(C(F)(F)F)O1 [EFV, efavirenz, reference compound] ... 4.3

Prompt: Quote CC50 at 7 days reported for Cc1ccnc2c1NC(=O)c1cccnc1N2C1CC1 [NVP, nevirapine, reference compound] please.
Completion: 5.41

----------
Test: Cell toxicity in uninfected MT-4 cells (MTT method)
Type: cell-based
Details: human, uninfected MT-4 cells, Table 2
TEST READOUT: CC50 at 7 days (µM)
I only need the number, in µM, no unit after it.

Past entries and their recorded results:
COc1cc2cc(C#N)ccc2c(OC)c1Oc1ccnc(Nc2ccc(C#N)cc2)n1 ... 20
N#Cc1ccc(Nc2nccc(Oc3ccc4cc(C#N)ccc4c3Cl)n2)cc1 ... 86.3
COc1c(Oc2ccnc(Nc3ccc(C#N)cc3)n2)ccc2cc(C#N)ccc12 ... 161

Prompt: Quote CC50 at 7 days reported for COc1cc2cc(C#N)ccc2c(Cl)c1Oc1ccnc(Nc2ccc(C#N)cc2)n1 please.
Completion: 15.4

Prompt: Quote CC50 at 7 days reported for COc1cc2cc(C#N)ccc2cc1Oc1ccnc(Nc2ccc(C#N)cc2)n1 please.
Completion: 142
